Items are presented alongside their recorded pIC50.
- measurementTarget: ALK tyrosine kinase receptor (Homo sapiens, UniProt Q9UM73)
- Sequence (Q9UM73 whole entry): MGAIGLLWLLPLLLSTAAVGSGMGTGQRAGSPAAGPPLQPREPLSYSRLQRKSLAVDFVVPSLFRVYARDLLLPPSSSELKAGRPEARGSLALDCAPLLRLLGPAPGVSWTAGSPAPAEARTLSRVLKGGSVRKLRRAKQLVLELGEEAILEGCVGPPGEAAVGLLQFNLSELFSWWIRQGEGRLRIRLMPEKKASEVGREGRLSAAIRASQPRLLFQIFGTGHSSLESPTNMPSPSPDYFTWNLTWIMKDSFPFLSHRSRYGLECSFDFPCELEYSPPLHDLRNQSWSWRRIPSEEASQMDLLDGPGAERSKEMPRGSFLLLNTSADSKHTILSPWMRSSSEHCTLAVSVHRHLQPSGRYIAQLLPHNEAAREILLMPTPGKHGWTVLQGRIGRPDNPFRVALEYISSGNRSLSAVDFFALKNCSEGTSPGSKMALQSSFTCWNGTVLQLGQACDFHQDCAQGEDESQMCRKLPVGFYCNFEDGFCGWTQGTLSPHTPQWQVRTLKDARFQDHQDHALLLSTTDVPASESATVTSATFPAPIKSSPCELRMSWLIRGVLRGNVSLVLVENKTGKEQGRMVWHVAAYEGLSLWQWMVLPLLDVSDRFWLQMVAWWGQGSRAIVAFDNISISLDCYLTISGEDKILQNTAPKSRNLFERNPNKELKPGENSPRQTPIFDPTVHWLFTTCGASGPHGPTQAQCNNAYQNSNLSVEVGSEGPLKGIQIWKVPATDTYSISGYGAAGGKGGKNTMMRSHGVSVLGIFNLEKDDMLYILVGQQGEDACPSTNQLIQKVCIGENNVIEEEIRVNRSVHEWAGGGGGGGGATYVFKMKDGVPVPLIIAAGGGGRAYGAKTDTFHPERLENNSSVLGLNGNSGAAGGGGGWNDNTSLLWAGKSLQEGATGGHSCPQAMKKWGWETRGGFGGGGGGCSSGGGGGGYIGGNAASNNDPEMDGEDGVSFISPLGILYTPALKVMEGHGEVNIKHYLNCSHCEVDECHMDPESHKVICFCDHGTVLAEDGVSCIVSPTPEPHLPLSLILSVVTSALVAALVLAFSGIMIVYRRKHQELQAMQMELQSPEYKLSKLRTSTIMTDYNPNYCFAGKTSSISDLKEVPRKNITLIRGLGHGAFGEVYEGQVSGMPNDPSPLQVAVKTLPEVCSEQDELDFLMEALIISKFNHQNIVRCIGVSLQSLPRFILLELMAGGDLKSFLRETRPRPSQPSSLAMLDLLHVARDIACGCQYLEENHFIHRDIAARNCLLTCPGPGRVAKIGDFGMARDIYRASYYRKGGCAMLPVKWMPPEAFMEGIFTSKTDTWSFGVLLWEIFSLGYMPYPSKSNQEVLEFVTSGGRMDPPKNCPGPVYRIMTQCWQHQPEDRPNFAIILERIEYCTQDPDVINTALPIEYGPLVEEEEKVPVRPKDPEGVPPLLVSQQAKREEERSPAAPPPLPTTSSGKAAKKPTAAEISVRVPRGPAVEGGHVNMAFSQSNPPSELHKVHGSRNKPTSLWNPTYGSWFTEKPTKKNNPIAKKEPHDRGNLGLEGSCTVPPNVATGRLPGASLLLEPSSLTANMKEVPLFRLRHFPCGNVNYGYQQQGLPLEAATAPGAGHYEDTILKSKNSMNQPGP
- assaySummary: Inhibition of ALK in human KARPAS299 cells assessed as phosphorylated Stat3 level after 6 hrs by Western blotting analysis
- Assay type: cell-based, KARPAS-299
Schema: pIC50 number; meaning minus log10 of the concentration expressed in molar units.

Example entries and their recorded answers appear below.
smilesNotation: Cn1cc(-c2cnc3[nH]cc(-c4cnn(Cc5ccc(F)cc5)c4)c3c2)cn1
measurementTarget: ALK tyrosine kinase receptor (Homo sapiens, UniProt Q9UM73)
testReadout: pIC50
testValue: 5.52

smilesNotation: Cn1cc(-c2cnc3[nH]cc(-c4cnn(Cc5ccc(F)c(F)c5)c4)c3c2)cn1
measurementTarget: ALK tyrosine kinase receptor (Homo sapiens, UniProt Q9UM73)
testReadout: pIC50
testValue: 6.01

smilesNotation: Cn1cc(-c2cnc3[nH]cc(-c4cnn(Cc5cc(F)ccc5F)c4)c3c2)cn1
measurementTarget: ALK tyrosine kinase receptor (Homo sapiens, UniProt Q9UM73)
testReadout: pIC50
testValue: 5.80

smilesNotation: Cn1cc(-c2cnc3[nH]cc(-c4cnn(Cc5cccc(F)c5)c4)c3c2)cn1
measurementTarget: ALK tyrosine kinase receptor (Homo sapiens, UniProt Q9UM73)
testReadout: pIC50
testValue: 6.86

Prompt line: Fill in: pIC50 of Cn1cc(-c2cnc3[nH]cc(-c4cnn(Cc5cccc(Cl)c5)c4)c3c2)cn1 is ___
Response line: 6.01

---

Items are presented alongside their recorded pIC50.
- measurementTarget: ALK tyrosine kinase receptor (Homo sapiens, UniProt Q9UM73)
- assaySummary: Inhibition of ALK in human KARPAS299 cells assessed as phosphorylated ALK level
Schema: pIC50 number; meaning minus log10 of the concentration expressed in molar units.

Example entries and their recorded answers appear below.
smilesNotation: Cn1cc(-c2cnc3[nH]cc(-c4cnn(Cc5cc(F)ccc5F)c4)c3c2)cn1
testReadout: pIC50
testValue: 6.05
//
smilesNotation: Cn1cc(-c2cnc3[nH]cc(-c4cnn(Cc5cccc(Cl)c5)c4)c3c2)cn1
testReadout: pIC50
testValue: 5.51
//
smilesNotation: Cn1cc(-c2cnc3[nH]cc(-c4cnn(Cc5cccc(F)c5)c4)c3c2)cn1
testReadout: pIC50
testValue: 6.66
//
smilesNotation: Cn1cc(-c2cnc3[nH]cc(-c4cnn(Cc5ccc(F)cc5)c4)c3c2)cn1
testReadout: pIC50
testValue: 5.41

In the following, a different compound is considered.
Prompt line: Param readout= pIC50; system= ALK tyrosine kinase receptor (Homo sapiens, UniProt Q9UM73); entry= Cn1cc(-c2cnc3[nH]cc(-c4cnn(Cc5ccc(F)c(F)c5)c4)c3c2)cn1 ; returns value.
Response line: 5.48

---

- measurementTarget: ALK tyrosine kinase receptor (Homo sapiens, UniProt Q9UM73, L1196M)
- Sequence (Q9UM73 19-1620 L1196M limits assumed): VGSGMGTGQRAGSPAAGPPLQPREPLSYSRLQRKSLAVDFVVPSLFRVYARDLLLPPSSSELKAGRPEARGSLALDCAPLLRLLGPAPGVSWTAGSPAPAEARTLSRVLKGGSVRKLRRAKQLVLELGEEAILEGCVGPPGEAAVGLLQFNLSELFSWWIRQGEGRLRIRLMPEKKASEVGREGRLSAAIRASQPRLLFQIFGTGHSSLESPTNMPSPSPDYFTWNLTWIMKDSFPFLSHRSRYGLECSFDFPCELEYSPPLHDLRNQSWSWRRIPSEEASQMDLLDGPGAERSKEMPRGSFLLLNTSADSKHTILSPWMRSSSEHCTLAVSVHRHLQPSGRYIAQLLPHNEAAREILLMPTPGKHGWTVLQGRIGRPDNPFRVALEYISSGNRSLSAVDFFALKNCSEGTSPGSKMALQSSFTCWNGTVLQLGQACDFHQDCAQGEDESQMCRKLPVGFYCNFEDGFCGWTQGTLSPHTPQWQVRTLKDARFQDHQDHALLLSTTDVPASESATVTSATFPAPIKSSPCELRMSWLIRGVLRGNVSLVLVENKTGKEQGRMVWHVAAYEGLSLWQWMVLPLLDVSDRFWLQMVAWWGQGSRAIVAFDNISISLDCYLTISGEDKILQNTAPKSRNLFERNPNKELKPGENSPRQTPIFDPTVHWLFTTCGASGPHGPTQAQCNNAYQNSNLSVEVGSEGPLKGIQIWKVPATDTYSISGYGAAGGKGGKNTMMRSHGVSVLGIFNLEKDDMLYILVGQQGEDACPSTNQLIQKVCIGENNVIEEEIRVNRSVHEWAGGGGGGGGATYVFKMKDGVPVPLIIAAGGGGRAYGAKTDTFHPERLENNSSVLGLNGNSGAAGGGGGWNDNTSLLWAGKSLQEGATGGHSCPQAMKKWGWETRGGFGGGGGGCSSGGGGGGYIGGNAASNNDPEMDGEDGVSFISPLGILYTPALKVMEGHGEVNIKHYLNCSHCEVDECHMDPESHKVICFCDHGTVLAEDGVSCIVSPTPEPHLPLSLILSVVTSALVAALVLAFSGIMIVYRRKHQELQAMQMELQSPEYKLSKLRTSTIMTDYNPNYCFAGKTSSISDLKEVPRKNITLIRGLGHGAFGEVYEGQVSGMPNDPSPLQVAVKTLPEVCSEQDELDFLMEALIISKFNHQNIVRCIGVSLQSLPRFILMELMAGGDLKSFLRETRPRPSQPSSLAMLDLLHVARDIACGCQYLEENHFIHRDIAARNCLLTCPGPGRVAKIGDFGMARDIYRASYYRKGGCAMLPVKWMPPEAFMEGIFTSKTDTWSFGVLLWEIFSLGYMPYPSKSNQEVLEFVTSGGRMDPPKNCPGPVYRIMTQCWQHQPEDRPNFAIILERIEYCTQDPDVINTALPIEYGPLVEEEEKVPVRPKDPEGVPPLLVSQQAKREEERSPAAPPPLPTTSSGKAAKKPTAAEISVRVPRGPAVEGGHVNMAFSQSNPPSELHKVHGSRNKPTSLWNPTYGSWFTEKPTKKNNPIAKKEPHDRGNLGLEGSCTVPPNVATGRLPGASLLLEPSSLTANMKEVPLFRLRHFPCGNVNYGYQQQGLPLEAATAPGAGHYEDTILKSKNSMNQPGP
- assaySummary: Inhibition of human ALK L1196M mutant after 30 mins by TR-FRET assay
pIC50: −log10 of the molar value.
Rule: true (1) for pIC50 not less than 7, false (0) for anything less.

Past entries and their recorded results:
smilesNotation: Cn1cc(-c2cnc3[nH]cc(-c4cnn(Cc5cccc(O)c5)c4)c3c2)cn1
cat: false (0)

smilesNotation: Cn1cc(-c2cnc3[nH]cc(-c4cnn(Cc5cccc(F)c5)c4)c3c2)cn1
cat: true (1)

smilesNotation: Cn1cc(-c2cnc3[nH]cc(-c4cnn(Cc5cccc(C(=O)O)c5)c4)c3c2)cn1
cat: false (0)

smilesNotation: Cn1cc(-c2cnc3[nH]cc(-c4cnn(Cc5ccccc5F)c4)c3c2)cn1
cat: false (0)

Prompt line: Could you verify whether the entry Cn1cc(-c2cnc3[nH]cc(-c4cnn(Cc5cccc(C(F)(F)F)c5)c4)c3c2)cn1 shows pIC50 of no less than 7?
Response line: false (0)

Prompt line: Could you verify whether the entry Cc1nn(Cc2cc(F)cc(F)c2)c(C)c1-c1c[nH]c2ncc(-c3cnn(C)c3)cc12 shows pIC50 of no less than 7?
Response line: false (0)

Prompt line: Could you verify whether the entry Cn1cc(-c2cnc3[nH]cc(-c4cnn(Cc5ccc(F)c(F)c5)c4)c3c2)cn1 shows pIC50 of no less than 7?
Response line: false (0)

---

- measurementTarget: Aurora kinase A (Homo sapiens)
- assaySummary: Inhibition of aurora A kinase (unknown origin) at 100 nM
Rule: YES for inhibition not less than 80%, NO for anything less.

smilesNotation: Cn1cc(-c2cnc3[nH]cc(-c4cnn(Cc5ccc(F)cc5)c4)c3c2)cn1
cat: NO

From here, focus on the item given below.
Prompt line: Could you verify whether the entry Cn1cc(-c2cnc3[nH]cc(-c4cnn(Cc5cccc(F)c5)c4)c3c2)cn1 shows inhibition of no less than 80%?
Response line: YES

---

- measurementTarget: ALK tyrosine kinase receptor (Homo sapiens)
- assaySummary: Inhibition of wild type human recombinant ALK after 30 mins by TR-FRET assay
Entry class follows IC50: low = under 30 nM, middle = from 30 nM up to 70 nM, high = 70 nM and over

smilesNotation: Cc1nn(Cc2cc(F)ccc2F)c(C)c1-c1c[nH]c2ncc(-c3cnn(C)c3)cc12
cat: middle
--
smilesNotation: Cc1nn(Cc2cccc(F)c2)c(C)c1-c1c[nH]c2ncc(-c3cnn(C)c3)cc12
cat: middle
--
smilesNotation: Cn1cc(-c2cnc3[nH]cc(-c4cnn(Cc5cccc(F)c5)c4)c3c2)cn1
cat: low
--
smilesNotation: Cn1cc(-c2cnc3[nH]cc(-c4cnn(Cc5cccc(N)c5)c4)c3c2)cn1
cat: low
--
smilesNotation: Cn1cc(-c2cnc3[nH]cc(-c4cnn(Cc5cccc(O)c5)c4)c3c2)cn1
cat: middle
--
smilesNotation: Cn1cc(-c2cnc3[nH]cc(-c4cnn(Cc5cccc(C(=O)O)c5)c4)c3c2)cn1
cat: high
--
smilesNotation: Cc1nn(Cc2cc(F)cc(F)c2)c(C)c1-c1c[nH]c2ncc(-c3cnn(C)c3)cc12
cat: low
--
smilesNotation: Cn1cc(-c2cnc3[nH]cc(-c4cnn(Cc5ccccc5)c4)c3c2)cn1
cat: high
--
smilesNotation: Cn1cc(-c2cnc3[nH]cc(-c4cnn(Cc5cc(F)ccc5F)c4)c3c2)cn1
cat: low
--
smilesNotation: Cn1cc(-c2cnc3[nH]cc(-c4cnn(Cc5ccccc5F)c4)c3c2)cn1
cat: high

Prompt line: Would you mind sorting Cn1cc(-c2cnc3[nH]cc(-c4cnn(Cc5cccc(C#N)c5)c4)c3c2)cn1 into the appropriate category?
Response line: middle

Prompt line: Would you mind sorting Cn1cc(-c2cnc3[nH]cc(-c4cnn(Cc5cc(F)cc(F)c5)c4)c3c2)cn1 into the appropriate category?
Response line: low

Prompt line: Would you mind sorting Cc1nn(Cc2cccc(F)c2)cc1-c1c[nH]c2ncc(-c3cnn(C)c3)cc12 into the appropriate category?
Response line: low

Prompt line: Would you mind sorting Cn1cc(-c2cnc3[nH]cc(-c4cnn(Cc5cccc(C(F)(F)F)c5)c4)c3c2)cn1 into the appropriate category?
Response line: high

Prompt line: Would you mind sorting Cn1cc(-c2cnc3[nH]cc(-c4cnn(Cc5ccc(F)c(F)c5)c4)c3c2)cn1 into the appropriate category?
Response line: high

---

- Species: Homo sapiens
- assaySummary: Selectivity ratio of IC50 for aurora A kinase (unknown origin) to IC50 for human recombinant ALK
Items are presented alongside their recorded Ratio IC50.
Answer as a number with no unit attached.

Example entries and their recorded answers appear below.
smilesNotation: Cn1cc(-c2cnc3[nH]cc(-c4cnn(Cc5cccc(F)c5)c4)c3c2)cn1
testReadout: Ratio IC50
testValue: 2
//
smilesNotation: Cc1nn(Cc2cc(F)ccc2F)c(C)c1-c1c[nH]c2ncc(-c3cnn(C)c3)cc12
testReadout: Ratio IC50
testValue: 3
//
smilesNotation: Cc1nn(Cc2cccc(F)c2)cc1-c1c[nH]c2ncc(-c3cnn(C)c3)cc12
testReadout: Ratio IC50
testValue: 6
//
smilesNotation: Cc1nn(Cc2cccc(F)c2)c(C)c1-c1c[nH]c2ncc(-c3cnn(C)c3)cc12
testReadout: Ratio IC50
testValue: 11

In the following, a different molecule is considered.
Prompt line: Fill in: Ratio IC50 of Cc1nn(Cc2cc(F)cc(F)c2)c(C)c1-c1c[nH]c2ncc(-c3cnn(C)c3)cc12 is ___
Response line: 30

---

Items are presented alongside their recorded pIC50.
- measurementTarget: ALK tyrosine kinase receptor (Homo sapiens, UniProt Q9UM73, L1196M)
- assaySummary: Inhibition of human ALK L1196M mutant after 30 mins by TR-FRET assay
Schema: pIC50 number; meaning minus log10 of the concentration expressed in molar units.

Example entries and their recorded answers appear below.
smilesNotation: Cn1cc(-c2cnc3[nH]cc(-c4cnn(Cc5ccccc5)c4)c3c2)cn1
pIC50: 6.85

smilesNotation: Cn1cc(-c2cnc3[nH]cc(-c4cnn(Cc5cccc(C#N)c5)c4)c3c2)cn1
pIC50: 6.82

smilesNotation: Cn1cc(-c2cnc3[nH]cc(-c4cnn(Cc5cccc(Cl)c5)c4)c3c2)cn1
pIC50: 6.84

smilesNotation: Cn1cc(-c2cnc3[nH]cc(-c4cnn(Cc5cc(F)ccc5F)c4)c3c2)cn1
pIC50: 6.91

Prompt line: Fill in: pIC50 of Cc1nn(Cc2cccc(F)c2)cc1-c1c[nH]c2ncc(-c3cnn(C)c3)cc12 is ___
Response line: 7.25

Prompt line: Fill in: pIC50 of Cc1nn(Cc2cc(F)ccc2F)c(C)c1-c1c[nH]c2ncc(-c3cnn(C)c3)cc12 is ___
Response line: 6.37

Prompt line: Fill in: pIC50 of Cn1cc(-c2cnc3[nH]cc(-c4cnn(Cc5cc(F)cc(F)c5)c4)c3c2)cn1 is ___
Response line: 7.33

Prompt line: Fill in: pIC50 of Cc1nn(Cc2cccc(F)c2)c(C)c1-c1c[nH]c2ncc(-c3cnn(C)c3)cc12 is ___
Response line: 6.56

Prompt line: Fill in: pIC50 of Cn1cc(-c2cnc3[nH]cc(-c4cnn(Cc5ccc(F)cc5)c4)c3c2)cn1 is ___
Response line: 6.59
